Measured values drawn from patent US20260258115A1 for this set.

TGT: Respiratory Syncytial Virus fusion glycoprotein (RSV F) on RSV-A2 virus (Respiratory Syncytial Virus subtype A (RSV-A2))
EXPERIMENT SUMMARY: cell-based or functional assay
MEASUREMENT TYPE: Neutralization IC50 (RSV subtype A)

Neutralization IC50 (RSV subtype A) recorded for this binder, ADI-41171 (antibody, V domains shown) VH: EVQLVESGPGLVKPSQTLSLTCTVSGGSISSGGDYWSWVRQRPGKGLEWIGYIYNSGSGYYNPSLKNRVSMSMHTSRNQFSLRLSSVTAADTAFYYCARDPFYRSGGIHYFDYWGQGALVTVSS VL: DIVLTQTPGTLSLSPGEGATLSCRASPSVGSTSLAWYQQKPGQAPRLLIYGASSRATGIPDRFSGSGSGTDFTLTISRLEPEDFAVYYCQQDGGLPITFGLGTRLEIK , is > 25 µg/mL
